Cited source: patent US11541041B1

Target: KRas G12D/Q61H double mutant (Homo sapiens (Human), UniProt P01116, G12D/Q61H)
Sequence (P01116-2 other isoform, or with tags, fused parts or gaps G12D/Q61H): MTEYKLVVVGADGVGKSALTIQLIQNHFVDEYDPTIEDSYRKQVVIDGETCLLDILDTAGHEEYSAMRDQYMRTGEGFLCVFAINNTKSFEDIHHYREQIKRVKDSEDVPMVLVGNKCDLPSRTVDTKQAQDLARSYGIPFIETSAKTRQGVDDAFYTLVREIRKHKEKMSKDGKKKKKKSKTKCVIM
Assay: Ras GTP binding domain inhibition assay
Conditions: 20 μM compound; read-out: % Inhibition at 20 μM, KRas G12D Q61H
In this section we review reported inhibition at 20 µM values for a set of compounds.
measurement_label: inhibition at 20 µM

1) CCN(Cc1cnc(S(=O)(=O)N(C)C)o1)c1ccccc1 ... 25 to 50%
2) CCOc1ccc(C(F)(F)F)cc1NCc1ncc(C)o1 ... 25 to 50%
3) Nc1nc(-c2ccccn2)nc2c(CC3CNC3)csc12 ... 25 to 50%
4) O=C(c1ccc(S(=O)(=O)N2CCOCC2)cc1)N(Cc1ccccc1)Cc1cccs1 ... 1 to 25%
5) Nc1nc(-c2ccccn2)nc2c(C3CC3)csc12 ... 25 to 50%
6) FC(F)(F)c1cccc(N2CCN(c3cc(Cl)nc4ncnn34)CC2)c1 ... 25 to 50%
7) O=c1[nH]c(-c2cncc(OCC(F)F)c2)nc2cc(F)c(F)cc12 ... 25 to 50%
8) O=C(CCCc1cccnc1)N1CCCc2c(O)nc(C3C=CC=CN3)nc21 (stereo not shown) ... 51 to 75%
9) Cc1nc(-c2cn(C)cn2)nc2sc(-c3ccc(CNC(=O)OC(C)(C)C)cc3)c(-c3ccccc3)c12 ... 1 to 25%
10) C=CCc1cc(COC)ccc1OCC(=O)NCc1ccc(OC)cc1 ... 25 to 50%
11) CCOC(=O)c1cnc(N(C2CC2)S(=O)(=O)c2ccc(OC)c(C)c2)s1 ... 1 to 25%
12) Cc1nc(-c2nccn2C)nc2sc(-c3ccccc3)c(-c3ccccc3)c12 ... 1 to 25%
13) C=C(CNc1nc(-c2ccccn2)nc2scc(-c3ccccc3)c12)NC ... 25 to 50%
14) CCC1=CC2C(=O)NC(c3ccccn3)=NC2S1 (stereo not shown) ... 25 to 50%
15) O=C1C2C=CC=CC2OC(O)C1Cc1cc(Cl)c2cccnc2c1O (stereo not shown) ... 25 to 50%
16) CN(C(=O)c1ccc(COc2ccccc2F)o1)c1cccs1 ... 25 to 50%
